- assay.explanation: cn = amount concentration of the nth substance listed, in mol/dm3
- particulars: 303.15 K; 101 kPa; Liquid; c1 = 0.7
observed.property: viscosity (mPa·s)
Answers are plain numbers, in mPa·s.

{"columns": ["compound", "viscosity (mPa·s)"],
 "data": [
  ["OC[C@@H](O)[C@@H](O)[C@H](O)[C@@H](O)CO [D-sorbitol] + O", 1.136],
  ["OC[C@@H](O)[C@@H](O)[C@H](O)[C@H](O)CO [mannitol] + O", 1.197]
]}

Fill in viscosity for each of the 3 compounds listed.
1. OC[C@@H](O)[C@@H](O)CO [meso-1,2,3,4-butanetetrol] + O
2. OC[C@@H](O)[C@H](O)[C@@H](O)CO [xylitol] + O
3. OC[C@@H](O)[C@@H](O[C@H]1O[C@H](CO)[C@@H](O)[C@H](O)[C@H]1O)[C@H](O)[C@@H](O)CO [4-O-α-D-glucopyranosyl-D-glucitol] + O

Output:
1. 1.002
2. 1.079
3. 1.684
